- assayed target: Gal(b1-4)GlcNAc(b1-3)[Gal(b1-4)GlcNAc(b1-6)]Gal(b1-4)GlcNAc
- assay comment: glycan array binding signal (z-score within array); higher = stronger binding
- particulars: glycan notation: IUPAC condensed, linker removed
This is one part of a sample in which the strongest signals are shown more often than they occur.
measurement type: glycan array binding signal (z-score)
Answers are plain numbers.

LcH (Lens culinaris), P02870 (protein) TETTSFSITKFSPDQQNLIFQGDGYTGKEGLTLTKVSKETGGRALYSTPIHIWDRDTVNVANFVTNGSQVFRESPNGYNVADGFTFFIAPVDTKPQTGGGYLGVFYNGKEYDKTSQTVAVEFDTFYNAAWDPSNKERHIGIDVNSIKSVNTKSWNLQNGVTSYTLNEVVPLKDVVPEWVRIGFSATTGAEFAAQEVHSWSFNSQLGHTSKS :: -0.138

For each of the items listed, what is its glycan array binding signal (z-score)?
1. Surfactant Protein D (Human); Neck + Carbohydrate Recognition Domain (NCRD) (Homo sapiens) (protein) MLLFLLSALVLLTQPLGYLEAEMKTYSHRTMPSACTLVMCSSVESGLPGRDRDGREGPRGEKGDPGLPGAAGQAGMPGQAGPVGPKGDNGSVGEPGPKGDTGPSGPPGPPGVPGPAGREGALGKQGNIGPQGKPGPKGEAGPKGEVGAPGMQGSAGARGLAGPKGERGVPGERGVPGNTGAAGSAGAMGPQGSPGARGPPGLKGDKGIPGDKGAKGESGLPDVASLRQQVEALQGQVQHLQAAFSQYKKVELFPNGQSVGEKIFKTAQFVKPFTEAQLLCTQAGGQLASPRSAAENAALQQLVVAKNEAAFLSMTDSKTEGKFTYPTGESLVYSNWAPGEPNDDGGSEDCVEIFTNGKWNDRACGEKRLVVCEF
2. R410P1E11 (Tachypleus tridentatus), TAL2_TACTR (protein) MEKGTPPTHDSDNWMGRAKEIGNGGWDQFQFLFFDPNGYLYAVSNDKLYKASPPQSDTDNWIARATEIGSGGWSGFKFLFFHPNGYLYAVRGQRFYKALPPVSNQD

[-0.29, -0.144]
